- assay-procedure: Quantification of bivalirudin concentration in plasma of PCI patients
- Assay type: in vivo
- test-settings: both, human, iv, Residual plasma drug levels two hours after discontinuation of infusion, 2 h POST, LC/MS/MS
measured-metric: level at time molar (nM)
Give bare numbers, in nM.

Indicate its recorded level at time molar; the molecule in question is CC[C@H](C)[C@H](NC(=O)[C@H](CCC(=O)O)NC(=O)[C@H](CCC(=O)O)NC(=O)[C@H](Cc1ccccc1)NC(=O)[C@H](CC(=O)O)NC(=O)CNC(=O)[C@H](CC(N)=O)NC(=O)CNC(=O)CNC(=O)CNC(=O)CNC(=O)[C@@H]1CCCN1C(=O)[C@H](CCCNC(=N)N)NC(=O)[C@@H]1CCCN1C(=O)[C@H](N)Cc1ccccc1)C(=O)N1CCC[C@H]1C(=O)N[C@@H](CCC(=O)O)C(=O)N[C@@H](CCC(=O)O)C(=O)N[C@@H](Cc1ccc(O)cc1)C(=O)N[C@@H](CC(C)C)C(=O)O 200
